target-desc: OE19 (3A1) (Homo sapiens, UniProt P30838)
Sequence (P30838 whole entry): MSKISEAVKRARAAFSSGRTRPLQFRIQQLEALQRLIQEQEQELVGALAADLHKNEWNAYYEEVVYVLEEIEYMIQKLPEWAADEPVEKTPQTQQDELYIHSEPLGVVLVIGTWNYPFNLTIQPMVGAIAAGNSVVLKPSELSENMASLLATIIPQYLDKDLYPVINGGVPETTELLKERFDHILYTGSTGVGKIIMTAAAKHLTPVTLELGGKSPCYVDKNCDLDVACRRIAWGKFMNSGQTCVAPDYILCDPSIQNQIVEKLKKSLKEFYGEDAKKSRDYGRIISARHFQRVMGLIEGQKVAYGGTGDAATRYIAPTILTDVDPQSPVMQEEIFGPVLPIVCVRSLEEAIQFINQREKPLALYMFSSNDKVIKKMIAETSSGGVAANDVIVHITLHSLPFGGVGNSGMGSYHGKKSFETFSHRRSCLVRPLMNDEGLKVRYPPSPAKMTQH
test-description: Cellular ALDEFLUOR assay in OE19 cells (preferential ALDH3A1 expression)
condition-description: Table S4, cellular curve class
readout: Cell_CC-v2

Recorded results for 2 compounds are shown here.
Cc1cccc(CNC(=O)c2csc(N3CCN(c4cccc([S+](C)(=O)[O-])c4)CC3)n2)c1 [NCGC01210723-01]    -1.2
Cc1cccc(CNC(=O)c2csc(N3CCN(c4cncc(Br)c4)CC3)n2)c1 [NCGC01212814-01]    4

(A) Cc1cccc(CNC(=O)c2csc(N3CCN(c4ccccc4Cl)CC3)n2)c1 [NCGC01211121-01]
(B) COc1ccc(Cl)c(N2CCN(c3nc(C(=O)NCc4cccc(C)c4)cs3)CC2)c1 [NCGC01211381-01]
So which one has the bigger Cell_CC-v2 here, A or B ? Mark your selection by writing its label. A
(A: -1.3, B: -2.3)
